Each recorded value in this set is attributed to the supplement of paper PMC4466236.

# Test system: MvaT
# measurement protocol: PBM 8-mer E-score (mean of HK and ME arrays) (E-score (dimensionless, -0.5 to 0.5)); higher = stronger relative binding preference
The full ranking holds about 33,000 sequences; the median of “E-score (dimensionless, -0.5 to 0.5)” is about -0.058, and the highest 2% start at about 0.35. The sample holds the highest values, similar sequences and a random draw of the others, so the mix is not that of the screen.
PBM 8-mer E-score of 0.09 or higher: y. Under 0.09: n.

Please review the following examples before continuing.
CTTATAAG
y
AGGCATCG
n

// query Is PBM 8-mer E-score for CGGGAGAG at or above 0.09?
// result n

// query Is PBM 8-mer E-score for AATTCTAG at or above 0.09?
// result y

// query Is PBM 8-mer E-score for ACACCCCC at or above 0.09?
// result n

// query Is PBM 8-mer E-score for AGATACCC at or above 0.09?
// result n

// query Is PBM 8-mer E-score for TCGATCCA at or above 0.09?
// result n

// query Is PBM 8-mer E-score for GCGTGAAC at or above 0.09?
// result n
